TARGET_UNDER_TEST: CLK2 (Homo sapiens)
EXPERIMENT_DESCRIPTION: In vitro kinase inhibition, ADP-Glo enzyme activity assay
Assay type: biochemical
ASSAY_SETUP: read-out: Enzymatic activity (IC50) CLK2
pIC50: −log10 of the molar value.
pIC50 overview

As a guide, the following entries are already answered.
[[record]]
smiles = "O=c1nc(-c2n[nH]c3ccc(-c4cccnc4)cc23)[nH]c2ccccc12"
target_under_test = "CLK2 (Homo sapiens)"
reported_result = "> 8.00"

[[record]]
smiles = "CC(C)CC(=O)Nc1cncc(-c2ccc3[nH]nc(-c4ccncc4)c3c2)c1"
target_under_test = "CLK2 (Homo sapiens)"
reported_result = "> 8.00"

[[record]]
smiles = "O=C(Nc1cncc(-c2ccc3[nH]nc(-c4nc(=O)c5ccccc5[nH]4)c3c2)c1)C1CC(F)(F)C1"
target_under_test = "CLK2 (Homo sapiens)"
reported_result = "> 8.00"

[[record]]
smiles = "CN(C)Cc1cncc(-c2ccc3[nH]nc(-c4nc(=O)c5ccccc5[nH]4)c3c2)c1"
target_under_test = "CLK2 (Homo sapiens)"
reported_result = "> 8.00"

[[record]]
smiles = "CC(C)C[C@H](N)COc1cncc(-c2ccc3[nH]nc(-c4nc(=O)c5ccccc5[nH]4)c3c2)c1"
target_under_test = "CLK2 (Homo sapiens)"
reported_result = "> 8.00"

[[record]]
smiles = "CCS(=O)(=O)Nc1cncc(-c2ccc3[nH]nc(-c4nc(=O)c5ccccc5[nH]4)c3c2)c1"
target_under_test = "CLK2 (Homo sapiens)"
reported_result = "> 8.00"

[[record]]
smiles = "O=C(CC1CC1)Nc1cncc(-c2ccc3[nH]nc(-c4nc(=O)c5ccccc5[nH]4)c3c2)c1"
target_under_test = "CLK2 (Homo sapiens)"
reported_result = "> 8.00"


stdin: Give its pIC50 value. Item: O=c1nc(-c2n[nH]c3ccc(-c4cncc(O)c4)cc23)[nH]c2ccccc12
stdout: > 8.00

---

TARGET_UNDER_TEST: DYRK1A (Homo sapiens, UniProt Q13627)
EXPERIMENT_DESCRIPTION: In vitro kinase inhibition, ADP-Glo enzyme activity assay
Format: biochemical
ASSAY_SETUP: read-out: Enzymatic activity (IC50) DYRK1A
PROPERTY_NAME: IC50

[[record]]
smiles = "O=C(CC1CCCCC1)Nc1cncc(-c2ccc3[nH]nc(-c4nc(=O)c5ccccc5[nH]4)c3c2)c1"
property_name = "IC50"
reported_result = "10 to 50 nM"

[[record]]
smiles = "CN1CCN(Cc2cncc(-c3ccc4[nH]nc(-c5nc(=O)c6ccccc6[nH]5)c4c3)c2)CC1"
property_name = "IC50"
reported_result = "10 to 50 nM"


stdin: Give its IC50 value. Item: CC(C)C[C@H](N)COc1cncc(-c2ccc3[nH]nc(-c4nc(=O)c5ccncc5[nH]4)c3c2)c1
stdout: < 10 nM

stdin: Give its IC50 value. Item: CC(C)CC(=O)Nc1cncc(-c2ccc3[nH]nc(-c4ccc5ocnc5c4)c3c2)c1
stdout: 10 to 50 nM

---

IC50 overview
TARGET_UNDER_TEST: DYRK1A (Homo sapiens, UniProt Q13627)
EXPERIMENT_DESCRIPTION: In vitro kinase inhibition, ADP-Glo enzyme activity assay
Assay type: biochemical
ASSAY_SETUP: read-out: Enzymatic activity (IC50) DYRK1A

As a guide, the following entries are already answered.
[[record]]
smiles = "O=c1nc(-c2n[nH]c3ccc(-c4cncc(CN5CCC(F)(F)C5)c4)cc23)[nH]c2ccccc12"
reported_result = "< 0.01 µM"

[[record]]
smiles = "CC(C)CC(=O)Nc1cncc(-c2ccc3[nH]nc(C4=NCc5ccccc5N4)c3c2)c1"
reported_result = "< 0.01 µM"

[[record]]
smiles = "CCS(=O)(=O)Nc1cncc(-c2ccc3[nH]nc(-c4nc(=O)c5ccccc5[nH]4)c3c2)c1"
reported_result = "< 0.01 µM"


stdin: Give its IC50 value. Item: CN(C)Cc1cncc(-c2ccc3[nH]nc(-c4nc(=O)c5ccccc5[nH]4)c3c2)c1
stdout: 0.05 to 0.1 µM

stdin: Give its IC50 value. Item: FC1(F)CCN(Cc2cncc(-c3ccc4[nH]nc(C5=NCc6ccccc6N5)c4c3)c2)C1
stdout: < 0.01 µM

---

TARGET_UNDER_TEST: CLK1 (Homo sapiens, UniProt P49759)
Sequence (P49759 whole entry): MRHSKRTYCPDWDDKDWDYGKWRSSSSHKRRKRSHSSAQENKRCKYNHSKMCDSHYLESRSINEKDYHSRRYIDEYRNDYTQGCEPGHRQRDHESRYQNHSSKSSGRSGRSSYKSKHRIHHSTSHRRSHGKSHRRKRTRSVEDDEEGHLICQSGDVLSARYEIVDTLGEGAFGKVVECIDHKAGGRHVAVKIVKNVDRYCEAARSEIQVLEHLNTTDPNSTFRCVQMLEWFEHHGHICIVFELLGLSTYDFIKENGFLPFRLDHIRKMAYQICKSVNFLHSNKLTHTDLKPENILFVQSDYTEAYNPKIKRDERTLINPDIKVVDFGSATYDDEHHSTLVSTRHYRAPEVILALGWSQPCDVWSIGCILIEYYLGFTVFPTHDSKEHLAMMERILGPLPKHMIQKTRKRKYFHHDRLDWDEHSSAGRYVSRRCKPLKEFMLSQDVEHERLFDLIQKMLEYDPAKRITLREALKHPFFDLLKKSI
pIC50: −log10 of the molar value.
PROPERTY_NAME: pIC50

As a guide, the following entries are already answered.
[[record]]
smiles = "O=C(CC1CCCCC1)Nc1cncc(-c2ccc3[nH]nc(-c4nc(=O)c5ccccc5[nH]4)c3c2)c1"
property_name = "pIC50"
reported_result = "7.00 to 7.30"

[[record]]
smiles = "CN1CCN(Cc2cncc(-c3ccc4[nH]nc(-c5nc(=O)c6ccccc6[nH]5)c4c3)c2)CC1"
property_name = "pIC50"
reported_result = "> 8.00"


Please turn your attention to the following entry.
stdin: Give its pIC50 value. Item: CC(C)CC(=O)Nc1cncc(-c2ccc3[nH]nc(-c4ccncc4)c3c2)c1
stdout: 7.00 to 7.30

---

TARGET_UNDER_TEST: CLK3 (Homo sapiens, UniProt P49761)
Sequence (P49761 whole entry): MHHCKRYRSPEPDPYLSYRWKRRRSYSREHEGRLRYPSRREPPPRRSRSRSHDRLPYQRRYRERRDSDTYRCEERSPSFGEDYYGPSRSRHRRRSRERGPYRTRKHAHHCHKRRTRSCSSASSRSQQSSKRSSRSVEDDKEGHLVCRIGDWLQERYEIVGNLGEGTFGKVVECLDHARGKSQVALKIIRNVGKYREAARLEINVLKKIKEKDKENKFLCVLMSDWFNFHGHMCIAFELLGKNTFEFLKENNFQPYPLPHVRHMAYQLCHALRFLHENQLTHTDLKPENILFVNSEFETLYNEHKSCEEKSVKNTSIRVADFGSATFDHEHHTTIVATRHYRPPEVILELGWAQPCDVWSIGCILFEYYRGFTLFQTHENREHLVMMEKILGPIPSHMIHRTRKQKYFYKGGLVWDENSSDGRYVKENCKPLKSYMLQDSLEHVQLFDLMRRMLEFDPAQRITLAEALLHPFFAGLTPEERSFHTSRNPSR
EXPERIMENT_DESCRIPTION: In vitro kinase inhibition, ADP-Glo enzyme activity assay
Assay type: biochemical
ASSAY_SETUP: read-out: IC50 for CLK3
PROPERTY_NAME: pIC50
Lab note — pIC50 values are minus log10 of concentrations in M.

stdin: Give its pIC50 value. Item: CC(C)C[C@H](N)COc1cncc(-c2ccc3[nH]nc(-c4nc(=O)c5ccccc5[nH]4)c3c2)c1 [LH-020]
stdout: 7.09

---

TARGET_UNDER_TEST: CLK2 (Homo sapiens, UniProt P49760)
Sequence (P49760 whole entry): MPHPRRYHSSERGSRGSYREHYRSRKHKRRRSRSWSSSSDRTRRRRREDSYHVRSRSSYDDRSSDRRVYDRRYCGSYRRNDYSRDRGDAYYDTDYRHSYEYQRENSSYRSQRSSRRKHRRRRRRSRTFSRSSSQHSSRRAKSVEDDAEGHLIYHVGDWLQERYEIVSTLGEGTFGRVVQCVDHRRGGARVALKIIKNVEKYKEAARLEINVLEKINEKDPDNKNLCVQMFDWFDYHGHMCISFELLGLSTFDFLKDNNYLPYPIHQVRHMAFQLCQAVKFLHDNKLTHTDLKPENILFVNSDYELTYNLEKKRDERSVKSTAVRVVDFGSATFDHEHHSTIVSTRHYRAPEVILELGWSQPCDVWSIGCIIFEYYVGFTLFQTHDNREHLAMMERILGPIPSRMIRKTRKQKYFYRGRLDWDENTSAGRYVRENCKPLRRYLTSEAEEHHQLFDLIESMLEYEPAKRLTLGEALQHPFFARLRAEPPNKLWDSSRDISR
EXPERIMENT_DESCRIPTION: In vitro kinase inhibition, ADP-Glo enzyme activity assay
Format: biochemical
ASSAY_SETUP: read-out: Enzymatic activity (IC50) CLK2
PROPERTY_NAME: IC50

[[record]]
compound = "O=C(Nc1cncc(-c2ccc3[nH]nc(-c4nc(=O)c5ccccc5[nH]4)c3c2)c1)C1CCCC1 [LH-004]"
reported_result = "10 to 50 nM"

[[record]]
compound = "CC(C)(C)C(=O)Nc1cncc(-c2ccc3[nH]nc(-c4nc(=O)c5ccccc5[nH]4)c3c2)c1 [LH-015]"
reported_result = "< 10 nM"

[[record]]
compound = "CN1CCN(Cc2cncc(-c3ccc4[nH]nc(-c5nc(=O)c6ccccc6[nH]5)c4c3)c2)CC1 [LH-019]"
reported_result = "< 10 nM"


stdin: Give its IC50 value. Item: O=c1nc(-c2n[nH]c3ccc(-c4cncc(NCC5CCCCC5)c4)cc23)[nH]c2ccccc12 [LH-006]
stdout: 10 to 50 nM

stdin: Give its IC50 value. Item: O=c1nc(-c2n[nH]c3ccc(-c4cncc(CN5CCC(F)(F)C5)c4)cc23)[nH]c2ccccc12 [LH-009]
stdout: < 10 nM

stdin: Give its IC50 value. Item: FC1(F)CCN(Cc2cncc(-c3ccc4[nH]nc(C5=NCc6ccccc6N5)c4c3)c2)C1 [LH-049]
stdout: < 10 nM

stdin: Give its IC50 value. Item: CC(C)CC(=O)Nc1cncc(-c2ccc3[nH]nc(C4=NCc5ccccc5N4)c3c2)c1 [LH-048]
stdout: < 10 nM

stdin: Give its IC50 value. Item: O=C(CC1CCCCC1)Nc1cncc(-c2ccc3[nH]nc(-c4nc(=O)c5ccccc5[nH]4)c3c2)c1 [LH-005]
stdout: 10 to 50 nM

---

TARGET_UNDER_TEST: DYRK1A (Homo sapiens, UniProt Q13627)
EXPERIMENT_DESCRIPTION: In vitro kinase inhibition, ADP-Glo enzyme activity assay
Type: biochemical
ASSAY_SETUP: read-out: Enzymatic activity (IC50) DYRK1A
Method: (1) The positive drug was diluted in a 4-fold gradient with DMSO in a dilution plate, with the final initial concentrations of the compound being 1 & 0.02 & 0.1 μM. […] (10) The RLU (relative luminescence unit) signal was read using a BMG multifunctional microplate reader, and the signal intensity was used to characterize the degree of the kinase activity. • (1) the ratio of each well was calculated; • (2) the inhibition rate was calculated as follows: […]
PROPERTY_NAME: IC50

As a guide, the following entries are already answered.
[[record]]
smiles = "O=c1nc(-c2n[nH]c3ccc(-c4cncc(NCC5CCCCC5)c4)cc23)[nH]c2ccccc12"
reported_result = "10 to 50 nM"

[[record]]
smiles = "O=C(CC1CC1)Nc1cncc(-c2ccc3[nH]nc(-c4nc(=O)c5ccccc5[nH]4)c3c2)c1"
reported_result = "50 to 100 nM"


Please turn your attention to the following entry.
stdin: Give its IC50 value. Item: O=c1nc(-c2n[nH]c3ccc(-c4cccnc4)cc23)[nH]c2ccccc12
stdout: 10 to 50 nM
